# TARGET UNDER TEST: T1, recombinant human TR-2 with a C-terminal hexahistidine tag (TR-2-His) (human, UniProt O14763 56-207)
# T1 construct: also called soluble TR-2-His
# ASSAY PROTOCOL: SPR Biacore 2000; antibody captured on anti-human antibody chip, 226 nM TR-2-His injected, 25 C, 1:1 model;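 note: goat anti-human capture surface amine-coupled on CM5 chip, HBS-P running buffer with BSA, responses normalized to captured antibody level, kinetics from global 1:1 fitting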
REPORTED PROPERTY: kon (M⁻¹ s⁻¹)
Give the quantity in M⁻¹ s⁻¹, number only.

* anti-TR-2 antibody F (antibody, V domains shown, also called Ab F) VH: QVQLVESGGGVVQPGRSLRLSCAASGFTFSYYGIHWVRQAPGKGLEWVAVIWYDGSNKYYADSVKGRFTISRDNSKNTLYLQMNSLRAEDTAVYYCARGRYSSSSWWYFDLWGRGTLVTVSS VL: DIQMTQSPSSLSASVGDRVTITCRASQGISNYLAWYQQKPGKVPKLLIYAASTLQSGVPSRFSGSGSGTDFTLTISSLQPEDVATYYCQKYNSAPLTFGGGTKVEIK | 380000

[ask] Fill in kon for record anti-TR-2 antibody E (antibody, V domains shown, also called Ab E) VH: QVQLVESGGGLVKPGGSLRLSCAASGFTFSDYYMNWIRQAPGKGLEWVSHISSSGSILDYADSVKGRFTISRDNAKNSLYLQMNSLRVEDTAVYYCARDGAAAGTDAFDLWGQGTMVTVSS VL: DIQMTQSPSSLSASVGDRVTITCRSSQSISNYINWYQQRPGKAPNLLIHDVSSFQSAVPSRFSRSGSGTVFTLTISSLQPEDFATYFCQQTYITPFTFGPGTKVDIK
[reply] 870000
